# target-entity: UniProt:Q07440
# Sequence (Q07440 whole entry, looked up): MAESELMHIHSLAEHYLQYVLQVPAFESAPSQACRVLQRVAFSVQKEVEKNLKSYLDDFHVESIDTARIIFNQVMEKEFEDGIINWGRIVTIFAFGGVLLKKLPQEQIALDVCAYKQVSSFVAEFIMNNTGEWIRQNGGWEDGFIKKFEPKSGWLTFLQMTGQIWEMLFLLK
# procedure-details: small-molecule antagonists of Bfl-1/BH3 interaction – biochemical, TR-FRET, mouse Bfl-1, confirmation (AID 621)
# run-parameters: TR-FRET Bfl-1 BH3 peptide binding displacement
In this section, each of the compounds is paired with its reported IC50.
measure-name: IC50

* Nc1ccc2ncccc2c1N | 3.49 µM
* CCn1c(SCC(=O)O)nc2sc3c(c2c1=O)CCC3 | 14.5 µM
